tested on: MCF7; assay: normalised growth rate inhibition (GR value) relative to DMSO control (GR (1 = untreated growth, 0 = cytostasis, <0 = cytotoxic)); higher = less growth inhibition; settings: 1.11 µM; 72 h

compound: Nc1ccc(C(=O)Nc2cccc(-c3nc(N4CCOCC4)c4oc5ncccc5c4n3)c2)cn1
normalised growth rate inhibition: 0.606
--
compound: N#CC[C@H](C1CCCC1)n1cc(-c2ncnc3[nH]ccc23)cn1 [ruxolitinib]
normalised growth rate inhibition: 1.05
--
compound: COc1cc2c(Oc3ccc(NC(=O)C4(C(=O)Nc5ccc(F)cc5)CC4)cc3F)ccnc2cc1OCCCN1CCOCC1 [foretinib]
normalised growth rate inhibition: 0.0492
--
compound: Cc1ccc(F)c(NC(=O)Nc2ccc(-c3cccc4[nH]nc(N)c34)cc2)c1 [linifanib]
normalised growth rate inhibition: 0.939
